Assay: Aqueous solubility of compound at pH 7.4 at 25 degC after 24 hrs
Assay type: physicochemical
Conditions: buffer
The threshold is inclusive: solubility at 24 h of exactly 20 µM counts as t; values below receive f.

Observe how each entry below is paired with its result.
# chem.smiles, class.assignment
measured = [
    ("CCCCCCCCn1cc(CN2CCC3(CC2)OCCO3)c2ccc(OC)cc21", "t"),
    ("CCCCCCCCn1cc(CN2CCCCCC2)c2c(F)cccc21", "t"),
    ("CCCCCCCCn1cc(CNC23CC4CC(CC(C4)C2)C3)c2c(F)cccc21", "f"),
    ("CCCCCCCCn1cc(CN2CCC(C)CC2)c2ccc(OC)cc21", "t"),
    ("CCCCCCCCn1cc(CN2CCC(C)CC2)c2c(F)cccc21", "t"),
]

Attention now shifts to the item below.
**Query** Can `CC(C)=CCC/C(C)=C/Cn1cc(CN2CCCCC2)c2cc(F)ccc21` be said to have solubility at 24 h at or above 20 µM?
**Result** t
